assay: Plasma concentration in C215 transfected MC38 cells implanted C57BL/6 mouse assessed as 2,5-dichloro-N-(6-chloro-4-hydroxypyridin-3-yl)thiophene-3-sulfonamide level at 5 mg/kg, po dosed as cassette formulation and measured at 1 hr after post dose by LC-MS analysis; format: ADME, organism-based; details: in vivo
parameter.measured: concentration (µM)
// return numeric value only (unit: µM, not printed)

Look at this molecule and give its reported concentration. `COc1cc(Cl)ncc1NS(=O)(=O)c1cc(Cl)sc1Cl`
0.49

----------
assay: Plasma concentration in C215 transfected MC38 cells implanted C57BL/6 mouse assessed as 2,5-dichloro-N-(6-chloro-4-hydroxypyridin-3-yl)thiophene-3-sulfonamide level at 1 mg/kg, iv dosed as cassette formulation and measured at 0.083 hrs after post dose by LC-MS analysis; type: ADME, organism-based; conditions: in vivo
parameter.measured: concentration (nM)
// return numeric value only (unit: nM, not printed)

Look at this compound and give its reported concentration. `COc1cc(Cl)ncc1NS(=O)(=O)c1cc(Cl)sc1Cl`
89
